Test system: Hs-578T
protocol-summary: Growth inhibition of human Hs 578T cells assessed as cell growth at 10^-5 M incubated for 48 hrs by sulforhodamine B assay relative to control
Format: functional
condition-label: read-out: Activity
Recorded growth at 10 µM, one value per entry.
reported-metric: growth at 10 µM (%)

[
  {
    "molecule": "c1ccc2c(c1)[nH]c1c(-c3ccc(-c4nccc5c4[nH]c4ccccc45)cc3)nccc12",
    "study-target": "Hs-578T",
    "unit-label": "%",
    "result-number": 97.7
  },
  {
    "molecule": "Cc1ccc(S(=O)(=O)N2CCc3c([nH]c4ccccc34)C2c2ccc(C=O)cc2)cc1 (stereo unspecified)",
    "study-target": "Hs-578T",
    "unit-label": "%",
    "result-number": 89.2
  },
  {
    "molecule": "Cc1n[nH]c2c1C(c1ccc(C3NCCc4c3[nH]c3ccccc43)cc1)C(C#N)=C(N)O2 (stereo unspecified)",
    "study-target": "Hs-578T",
    "unit-label": "%",
    "result-number": 87.7
  },
  {
    "molecule": "Cc1ccc(S(=O)(=O)N2CCc3c([nH]c4ccccc34)C2c2ccc(-c3nc4ccccc4[nH]3)cc2)cc1 (stereo unspecified)",
    "study-target": "Hs-578T",
    "unit-label": "%",
    "result-number": 89.2
  },
  {
    "molecule": "O=Cc1ccc(C2NCCc3c2[nH]c2ccccc32)cc1 (stereo unspecified)",
    "study-target": "Hs-578T",
    "unit-label": "%",
    "result-number": 90.5
  },
  {
    "molecule": "c1ccc2[nH]c(-c3ccc(C4NCCc5c4[nH]c4ccccc54)cc3)nc2c1 (stereo unspecified)",
    "study-target": "Hs-578T",
    "unit-label": "%",
    "result-number": 93.9
  }
]

----------
Recorded growth at 10 µM, one value per entry.
System: U-251
protocol-summary: Growth inhibition of human U251 cells assessed as cell growth at 10^-5 M incubated for 48 hrs by sulforhodamine B assay relative to control
Format: functional
condition-label: U-251, 48 h, read-out: Activity

[
  {
    "molecule": "Cc1n[nH]c2c1C(c1ccc(C3NCCc4c3[nH]c3ccccc43)cc1)C(C#N)=C(N)O2 (stereo unspecified)",
    "unit-label": "%",
    "growth at 10 µM": 87.5
  },
  {
    "molecule": "O=Cc1ccc(C2NCCc3c2[nH]c2ccccc32)cc1 (stereo unspecified)",
    "unit-label": "%",
    "growth at 10 µM": 95.3
  },
  {
    "molecule": "c1ccc2c(c1)[nH]c1c(-c3ccc(-c4nccc5c4[nH]c4ccccc45)cc3)nccc12",
    "unit-label": "%",
    "growth at 10 µM": 107
  },
  {
    "molecule": "Cc1ccc(S(=O)(=O)N2CCc3c([nH]c4ccccc34)C2c2ccc(-c3nc4ccccc4[nH]3)cc2)cc1 (stereo unspecified)",
    "unit-label": "%",
    "growth at 10 µM": 98
  },
  {
    "molecule": "Cc1ccc(S(=O)(=O)N2CCc3c([nH]c4ccccc34)C2c2ccc(C=O)cc2)cc1 (stereo unspecified)",
    "unit-label": "%",
    "growth at 10 µM": 98
  },
  {
    "molecule": "c1ccc2[nH]c(-c3ccc(C4NCCc5c4[nH]c4ccccc54)cc3)nc2c1 (stereo unspecified)",
    "unit-label": "%",
    "growth at 10 µM": 93.4
  }
]

Data provenance is ChEMBL document CHEMBL4004838.
